test system: HCV replicon 1AQ30D; assay: Cell-based HCV Replicon Assay B, replicon 1AQ30D; conditions: Hepatitis C virus, read-out: 1A Q30D IC50 (nM), replicon 1AQ30D
The following molecules are shown together with reported IC50 values.

MOLECULE: CCc1ncc(C2Oc3cc(-c4cnc([C@@H]5CCCN5C(=O)[C@@H](NC(=O)OC)C(C)C)[nH]4)cc(F)c3-c3cc4cc(-c5cnc([C@@H]6CCCN6C(=O)[C@@H](NC(=O)OC)C(C)C)[nH]5)ccc4n32)s1 (single isomer, unassigned) [Compound 81]
ASSAY SYSTEM: HCV replicon 1AQ30D
IC50: 0.384 nM
//
MOLECULE: COC(=O)NC(C(=O)N1[C@@H]2C[C@@H]2C[C@H]1c1ncc(-c2ccc3c(c2)cc2n3C(c3cnc(C4CCC4)s3)Oc3cc(-c4cnc([C@@H]5CCCN5C(=O)[C@@H](NC(=O)OC)C(C)C)[nH]4)cc(C)c3-2)[nH]1)C1CCOC(C)(C)C1 (single isomer, unassigned) [Compound 223]
ASSAY SYSTEM: HCV replicon 1AQ30D
IC50: 2.98 nM
